experimental target: IadK3 (Variovorax paradoxus)
Sequence (A0A0H2LZ84 entry or part of it): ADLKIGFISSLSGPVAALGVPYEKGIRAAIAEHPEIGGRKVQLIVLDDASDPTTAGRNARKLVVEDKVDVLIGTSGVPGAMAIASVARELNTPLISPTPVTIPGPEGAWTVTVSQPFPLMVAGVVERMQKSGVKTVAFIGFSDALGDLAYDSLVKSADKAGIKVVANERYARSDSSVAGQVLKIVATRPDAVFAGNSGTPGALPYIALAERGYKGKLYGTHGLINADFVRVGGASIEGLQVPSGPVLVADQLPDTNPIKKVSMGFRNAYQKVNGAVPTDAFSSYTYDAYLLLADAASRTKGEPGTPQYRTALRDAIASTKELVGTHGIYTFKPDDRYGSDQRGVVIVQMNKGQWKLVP
assay notes: ITC, auxins binding to IadK3
Set-up: species or system Variovorax paradoxus CL14
condition summary: read-out: ITC binding; IadK3, ITC, replicates
readout: Kd

For IadK3 (Variovorax paradoxus), give the measured Kd of the entry O=C(O)Cc1ccccc1 [PAA, phenylacetic acid]
> 100 µM

###

experimental target: IadK2 mutants (Variovorax paradoxus, UniProt T1X8R6, W172A)
Sequence (T1X8R6 entry or part of it W172A): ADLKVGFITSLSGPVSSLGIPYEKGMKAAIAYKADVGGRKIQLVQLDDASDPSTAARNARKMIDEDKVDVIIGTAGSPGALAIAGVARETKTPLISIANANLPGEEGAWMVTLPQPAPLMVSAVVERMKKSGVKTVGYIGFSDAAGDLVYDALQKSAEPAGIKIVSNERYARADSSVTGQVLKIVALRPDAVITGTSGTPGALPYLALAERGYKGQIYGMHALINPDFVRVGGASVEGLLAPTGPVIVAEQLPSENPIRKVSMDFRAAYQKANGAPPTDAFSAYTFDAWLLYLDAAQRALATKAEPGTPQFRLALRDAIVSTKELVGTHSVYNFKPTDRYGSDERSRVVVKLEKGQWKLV
assay notes: ITC, IAA binding to IadK2 mutants
Set-up: species or system Variovorax paradoxus CL14
condition summary: IadK2 mutant W172A, replicates
pKd: −log10 of the molar value.
readout: pKd

Note pKd for the molecule shown: O=C(O)Cc1c[nH]c2ccccc12 [IAA, indole-3-acetic acid]
< 4.00
